biological target: human MMP-12 (human, UniProt P39900 106-470, limits assumed); assay: cell-based or functional assay
Sequence (P39900 106-470 limits assumed): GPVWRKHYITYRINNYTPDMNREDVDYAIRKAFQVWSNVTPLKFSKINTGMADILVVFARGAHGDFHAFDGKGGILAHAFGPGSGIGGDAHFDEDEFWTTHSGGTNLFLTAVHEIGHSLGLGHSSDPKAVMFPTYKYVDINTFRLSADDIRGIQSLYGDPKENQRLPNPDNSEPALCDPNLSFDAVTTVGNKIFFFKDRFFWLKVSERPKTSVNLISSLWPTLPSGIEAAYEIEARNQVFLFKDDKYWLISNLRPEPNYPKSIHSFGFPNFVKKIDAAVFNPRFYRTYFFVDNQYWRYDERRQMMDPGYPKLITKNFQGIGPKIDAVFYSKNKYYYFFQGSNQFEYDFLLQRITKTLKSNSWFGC
binders and their reported IC50 (nM), large scale purified Fabs
MEASURED_METRIC: IC50 (nM), large scale purified Fabs

INSERT INTO assay_data (binder, unit_of_measurement, observed_value) VALUES
  ('539A-M0014-G11 Fab (Fab, V domains shown) VH: EVQLLESGGGLVQPGGSLRLSCAASGFTFSWYVMVWVRQAPGKGLEWVSSIYSSGGPTKYADSVKGRFTISRDNSKNTLYLQMNSLRAEDTAVYYCAKEGGVYGGPELYYYYYGMDVWGQGTTVTVSS VL: QYELTQPPSASGTPGQRITISCSGSSSNLGSNPVQWYQQLPGSAPKLLIHTNTHRPSGVPDRFSGSKSVTSASLAISGLQSEDEAEYYCATWDDSLNGGVFGGGTKLTVL', 'nM', 35),
  ('539A-M0027-E11 Fab (Fab, V domains shown) VH: EVQLLESGGGLVQPGGSLRLSCAASGFTFSHYEMEWVRQAPGKGLEWVSSISSSGGPTMYADSVKGRFTISRDNSKNTLYLQMNSLRAEDTAVYYCARGMYGDYDFYYYYGMDVWGQGTTVTVSS VL: DIQMTQSPDTLSLSPGERGTLSCRASQSLSSSYLAWYQQKPGQAPRLLIYDASSRATGIPDRFSGSGSGTDFTLTIGRLEPEDSAVYYCQQYGSFPLTFGGGTKVEIK', 'nM', 23.9),
  ('539A-M0016-A11 Fab (Fab, V domains shown) VH: EVQLLESGGGLVQPGGSLRLSCAASGFTFSEYQMAWVRQAPGKGLEWVSSIYPSGGHTHYADSVKGRFTISRDNSKNTLYLQMNSLRAEDTAVYYCAKESYYDFWSGYYFDYWGQGTLVTVSS VL: DIQMTQSPSSLSASVRDRVTITCRTSQNINTYLNWYYQAPGRAPKLLIFGVSSLHRGVSSRFSGSGDGTEFTLTISSLQPEDIGTYFCQQSYSSPWTFGQGTKVEIK', 'nM', 8.8),
  ('539A-M0013-D11 Fab (Fab, V domains shown) VH: EVQLLESGGGLVQPGGSLRLSCAASGFTFSSYPMWWVRQAPGKGLEWVSGIVPSGGVTIYADSVKGRFTISRDNSKNTLYLQMNSLRAEDTAVYYCARVGWLASSDYYYYMDVWGKGTTVTVSS VL: DIQMTQSPSSLSASVGDRITISCQASQDIDNYLNWYQQRSGKAPKLLIYDAYNLKAGVPSRFRGSRSGTDFFLTISSLQPEDFATYYCQQSYRAPLTFGGGTKVEIK', 'nM', 20.3),
  ('539A-M0022-C07 Fab (Fab, V domains shown) VH: EVQLLESGGGLVQPGGSLRLSCAASGFTFSIYQMWWVRQAPGKGLEWVSSISSSGFTWYADSVKGRFTISRDNSKNTLYLQMNSLRAEDTAVYYCTTEDIGYYYGMDVWGQGTTVTVSS VL: DIQMTQSPATLSVSPGERATLSCRASQNVRNYLAWYQQKPGQAPRLLIYDASKRATGIPARFSGSGSGTDFTLTISGLEPEDFAVYYCQQRSNWPTFGPGTKVDIK', 'nM', 24.2);

Data provenance is patent US8114968.
